Where these numbers come from: patent US12281155

Provide the recorded Binding AUC for the entries that follow.
- Experimental target: T1, recombinant SARS-CoV-2 Spike RBD domain, XBB.1.5 variant (SARS-CoV-2)
- T1 construct: also called RBD XBB.1.5 variant
- Assay summary: ELISA on coated RBD

Below: 4 binders and their reported Binding AUC.
Binder	Reported measurement
SPK002M A1 antibody (antibody, human IgG1, kappa, V domains shown) VH: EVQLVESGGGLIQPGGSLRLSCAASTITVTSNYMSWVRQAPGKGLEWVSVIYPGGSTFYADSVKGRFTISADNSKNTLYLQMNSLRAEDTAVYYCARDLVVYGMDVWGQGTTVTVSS VL: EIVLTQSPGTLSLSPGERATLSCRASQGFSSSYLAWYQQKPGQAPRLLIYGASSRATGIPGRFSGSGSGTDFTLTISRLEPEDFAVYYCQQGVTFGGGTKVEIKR	35
SPK002M A4 antibody (antibody, human IgG1, kappa, V domains shown) VH: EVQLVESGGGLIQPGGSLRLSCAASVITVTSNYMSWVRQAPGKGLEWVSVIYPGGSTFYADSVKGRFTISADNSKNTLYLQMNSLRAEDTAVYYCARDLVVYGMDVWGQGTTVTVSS VL: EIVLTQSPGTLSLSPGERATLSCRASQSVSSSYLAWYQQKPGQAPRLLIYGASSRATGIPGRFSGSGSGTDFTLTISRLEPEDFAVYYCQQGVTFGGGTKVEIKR	35
SPK002M C1 antibody (antibody, human IgG1, kappa, V domains shown) VH: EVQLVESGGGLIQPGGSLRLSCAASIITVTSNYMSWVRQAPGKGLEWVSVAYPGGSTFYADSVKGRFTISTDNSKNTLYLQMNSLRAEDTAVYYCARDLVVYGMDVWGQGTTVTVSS VL: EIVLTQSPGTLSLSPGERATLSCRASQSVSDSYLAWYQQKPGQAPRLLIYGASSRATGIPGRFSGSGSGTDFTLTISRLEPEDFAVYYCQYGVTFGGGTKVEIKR	31
SPK002M A3 antibody (antibody, human IgG1, kappa, V domains shown) VH: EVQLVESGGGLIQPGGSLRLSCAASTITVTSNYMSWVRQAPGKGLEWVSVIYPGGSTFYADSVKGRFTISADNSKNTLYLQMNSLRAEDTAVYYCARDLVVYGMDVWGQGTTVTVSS VL: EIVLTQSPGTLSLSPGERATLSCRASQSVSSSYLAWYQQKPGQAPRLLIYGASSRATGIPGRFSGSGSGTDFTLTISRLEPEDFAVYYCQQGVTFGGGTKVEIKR	35

In the following, a different binder is considered.
Query :: Given the entry SPK002M B1 antibody (antibody, human IgG1, kappa, V domains shown) VH: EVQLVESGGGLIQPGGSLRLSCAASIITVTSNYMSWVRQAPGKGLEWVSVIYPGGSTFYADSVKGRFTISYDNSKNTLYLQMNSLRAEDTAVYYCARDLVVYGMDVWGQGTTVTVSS VL: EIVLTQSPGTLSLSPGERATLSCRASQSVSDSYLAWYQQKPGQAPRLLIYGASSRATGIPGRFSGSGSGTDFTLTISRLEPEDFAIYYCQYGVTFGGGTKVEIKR , report its measured Binding AUC.
Result :: 31
